biological target: T1, human Mdm2 1-125 (human); experiment: fluorescence polarisation; competitive fluorescence anisotropy: unlabelled peptide titrated against 250 nM Mdm2 (1-125) with 50 nM FAM-labelled 12/1 peptide (FAM-…-NH2); PBS pH 7.4, 0.001% Tween-20; apparent Kd, geometric means; details: both partners purified
T1 construct: Mdm2, human, residues 1-125; the stretch after the TEV site ENLYFQG of the fusion protein; source: E. coli BL21 (DE3) Rosetta T1R, purified (Ni-NTA, gel filtration)
T1 sequence (chain, as listed by the source): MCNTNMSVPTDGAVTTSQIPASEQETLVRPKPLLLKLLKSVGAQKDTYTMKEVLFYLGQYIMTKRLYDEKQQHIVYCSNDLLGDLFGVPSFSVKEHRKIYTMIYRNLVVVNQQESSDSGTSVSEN
Positions of bridges follow the written chain, without caps; N, C: chain ends. Non-standard residues stand in square brackets, D forms with d. Primed or numbered codes have the meaning given here. Lys(N3) = [N-]=[N+]=NCCCC[C@H](N)C(=O)O; R8 = C=CCCCCCC[C@@](C)(N)C(=O)O; S5 = C=CCCC[C@](C)(N)C(=O)O; Cba′ = not defined here; βAla = NCCC(=O)O
Below, each of the binders is paired with its reported Kd value.
reported-property: Kd (nM)

binder	reported-property	units-label	reported
Ac-[Lys(N3)][βAla]RTF[R8]EYWAQ[Cba′][S5]SAA-NH2 (staple 6-13; reading uncertain) [AZIDE-ATSP-7041 (L1R)]	Kd	nM	62.9
KXLTFXEYWAQXXSXA (homo-Arg (hR) at 13; N-terminal acetyl; Lys(N3) and beta-Ala before residue 1; R8 at 4 and S5 at 11 (olefin staple); Cba at 10; C-terminal amide) [AZIDE-ATSP-7041 (A13hR)]	Kd	nM	42.5
KXLTFXXYWAQXXSAA (homo-Arg (hR) at 5; N-terminal acetyl; Lys(N3) and beta-Ala before residue 1; R8 at 4 and S5 at 11 (olefin staple); Cba at 10; C-terminal amide) [AZIDE-ATSP-7041 (E5hR)]	Kd	nM	35.5
